Type: physicochemical
CONDITION: octanol-PBS pH 7.4
Procedure: Determination of logD7.4. The log of distribution coefficients at pH 7.4 was determined in octanol-phosphate-buffered saline (PBS) using the miniaturized shake flask setup described previously.^36, 47 Briefly, 150 mL each of octanol and PBS pH 7.4 were stirred vigorously for 12-16 h. […] The concentrations of ligands in the standard and PBS* (CPBS*) were determined via fluorescence measurements of 200 μL of PBS* or std in 96-well plates on the Cytation 5 Multimode Plate Reader (BioTek). […]
Collected logD7.4 values appear next to each entry.
The answer should be written as a number, with no unit following it.

molecule=C[Si]1(C)c2cc(N3CCC3)ccc2C2(OC(=O)c3ccccc32)c2ccc(N3CCC3)cc21 result=3.98
molecule="C[Si]1(C)c2cc(N3CC(F)C3)ccc2C2(OC(=O)c3ccc(C(=O)NCCOCCOCCCCCCCl)cc32)c2ccc(N3CC(F)C3)cc21 [5HTL, JF635-HaloTag® ligand, reference compound]" result=3.82

Consider the record given below.
Ask | Item CC1(C)c2cc(N3CCC3)ccc2C2(OC(=O)c3ccccc32)c2ccc(N3CCC3)cc21 has what recorded logD7.4?
Reply | 3.78

----------
METHOD_SUMMARY: Determination of lactone-zwitterion equilibrium constant (KL-Z)
Type: physicochemical
CONDITION: 1:1 (v/v) dioxane:water
Doc: threshold 0.009 (exclusive). Items with KL-Z beneath it return condition met; others return condition not met.

Would you please look over these solved cases?
compound="C[Si]1(C)C2=CC(=[N+]3CC(F)(C(=O)NCCOCCOCCNC(=O)CCCC[C@@H]4SC[C@@H]5NC(=O)N[C@@H]54)C3)C=CC2=C(c2cc(C(=O)NCCOCCOCCCCCCCl)ccc2C(=O)[O-])c2ccc(N3CC(F)C3)cc21 (stereo partly shown)" group="condition met"
compound="C[Si]1(C)C2=CC(=[N+]3CC(C(=O)NCCOCCOCCNC(=O)CCCC[C@@H]4SC[C@@H]5NC(=O)N[C@@H]54)C3)C=CC2=C(c2cc(C(=O)NCCOCCOCCCCCCCl)ccc2C(=O)[O-])c2ccc(N3CCC3)cc21 (stereo partly shown)" group="condition met"
compound="CC1(C)C2=CC(=[N+]3CC(C(=O)NCCOCCOCCNC(=O)CCCC[C@@H]4SC[C@@H]5NC(=O)N[C@@H]54)C3)C=CC2=C(c2cc(C(=O)NCCOCCOCCCCCCCl)ccc2C(=O)[O-])c2ccc(N3CCC3)cc21 (stereo partly shown)" group="condition not met"
compound="CC1(C)c2cc(N3CCC3)ccc2C2(OC(=O)c3ccc(C(=O)NCCOCCOCCCCCCCl)cc32)c2ccc(N3CCC3)cc21 [3HTL, reference compound]" group="condition not met"
compound="O=C(NCCOCCOCCCCCCCl)c1ccc2c(c1)C1(OC2=O)c2ccc(N3CCC3)cc2Oc2cc(N3CCC3)ccc21 [2HTL, JF549-HaloTag® ligand, reference compound]" group="condition not met"

Ask | For C[Si]1(C)c2cc(N3CC(F)C3)ccc2C2(OC(=O)c3ccc(C(=O)NCCOCCOCCCCCCCl)cc32)c2ccc(N3CC(F)C3)cc21 [5HTL, JF635-HaloTag® ligand, reference compound] , is the recorded KL-Z below the cut-off of 0.009?
Reply | condition met

Ask | Same question for C[Si]1(C)c2cc(N3CCC3)ccc2C2(OC(=O)c3ccc(C(=O)NCCOCCOCCCCCCCl)cc32)c2ccc(N3CCC3)cc21 [4HTL, JF646-HaloTag® ligand, reference compound] please.
Reply | condition not met

----------
Format: physicochemical
CONDITION: octanol-PBS pH 7.4
ENDPOINT_LABEL: logD7.4
The answer should be written as a number, with no unit following it.

Reference set (3 entries):
molecule="CC1(C)c2cc(N3CCC3)ccc2C2(OC(=O)c3ccc(C(=O)NCCOCCOCCCCCCCl)cc32)c2ccc(N3CCC3)cc21 [3HTL, reference compound]" endpoint_label=logD7.4 result=3.55
molecule="C[Si]1(C)C2=CC(=[N+]3CC(C(=O)NCCOCCOCCNC(=O)CCCC[C@@H]4SC[C@@H]5NC(=O)N[C@@H]54)C3)C=CC2=C(c2cc(C(=O)NCCOCCOCCCCCCCl)ccc2C(=O)[O-])c2ccc(N3CCC3)cc21 (some centres unmarked)" endpoint_label=logD7.4 result=3.06
molecule="C[Si]1(C)c2cc(N3CCC3)ccc2C2(OC(=O)c3ccc(C(=O)NCCOCCOCCCCCCCl)cc32)c2ccc(N3CCC3)cc21 [4HTL, JF646-HaloTag® ligand, reference compound]" endpoint_label=logD7.4 result=3.59

Ask | Item C[Si]1(C)C2=CC(=[N+]3CC(F)(C(=O)NCCOCCOCCNC(=O)CCCC[C@@H]4SC[C@@H]5NC(=O)N[C@@H]54)C3)C=CC2=C(c2cc(C(=O)NCCOCCOCCCCCCCl)ccc2C(=O)[O-])c2ccc(N3CC(F)C3)cc21 (some centres unmarked) has what recorded logD7.4?
Reply | 3.6

Ask | Same question for C[Si]1(C)c2cc(N3CC(F)C3)ccc2C2(OC(=O)c3ccccc32)c2ccc(N3CC(F)C3)cc21 please.
Reply | 4.1
